Below: a set of entries, each annotated with reported Percent Effect.
tested on: Trypanosoma brucei; assay: Trypanosoma brucei 72 hour study; assay type: functional, organism-based; set-up: scale not given: in the data most compounds retested in dose-response had high values; conditions: 30 µM; 30.03 µM
In all, about 66,000 compounds went through this assay and about 960 (1.5%) showed an effect of 50% or more. The entries come from a sample that favours strong results as a whole.

compound	Percent Effect, %
Cc1ccc(C2COCCN2C(=O)c2ccc(F)c(F)c2)o1 (configuration not stated)	29.67
Cc1ccc(-n2ncc3c2CCCC3N)cc1C (configuration not stated)	-37.31
Cc1ccc(C2COCCN2C(=O)c2cccc(N(C)C)c2)o1 (configuration not stated)	50.27
Cc1cc(C)cc(-n2ncc3c2CCCC3N)c1 (configuration not stated)	-36.85
Cc1ccnc(N2Cc3cnn(Cc4ccc(F)cc4)c3C2)n1	-9.847
Cc1cc(C)nc(N2Cc3cnn(Cc4ccc(F)cc4)c3C2)n1	3.465
COc1ccc(NC(=O)CCNc2ncccn2)cn1	-26.87
O=C(NCCn1cccc1)C1CCCOC1 (configuration not stated)	2.367
Cc1nc(N2Cc3cnn(Cc4ccc(F)cc4)c3C2)no1	12.66
Fc1ccc(Cn2ncc3c2CN(c2ncccn2)C3)cc1	2.324
O=C(C[C@@H]1COC[C@H]2CN(C(=O)c3cccnc3)C[C@@H]12)N1CCCC1.O=C(O)C(F)(F)F	-25.13
CN(C(=O)[C@H]1CSCN1C(=O)OC(C)(C)C)C1CC1	-17.54
